# TARGET OR TEST SYSTEM: MAGI-1 PDZ3 domain, Cy3-labelled, tag-free
# PROCEDURE SUMMARY: FRET or BRET
Ends that are not written are not given here.
MEASURE: Kd

BINDER	ASSAY RESULT
GAIPVMIPAQSKDGSIV (also: Cy5 label (approximately 1 dye/peptide), site not given here) [CAR (CAR^Ex7) C-terminus, Cy5-labelled, tag-free]	2 nM
